subject.of.test: panel of more than 300 wild-type and mutant kinases (313 kinase panel) (Homo sapiens, UniProt Q8IY84)
measurement.notes: Kinase profiling in a biochemical assay panel (mobility shift assays and ELISA), %-inhibition at 1 μM; selectivity entropy
condition.summary: kinase MGC42105; 1 μM
Entries and their %-inhibition of MGC42105 values follow.
Please reply with the bare figure in % and do not write the unit itself.

compound="COc1cc2nccc(Oc3ccc(NC(=O)C4(C(=O)Nc5ccc(F)cc5)CC4)cc3)c2cc1OC [cabozantinib]" result_unit=% measured=-8
compound=CC(C)(C)c1nc(-c2cccc(NS(=O)(=O)c3c(F)cccc3F)c2F)c(-c2ccnc(N)n2)s1 result_unit=% measured=-8.54
compound=O=S(=O)(c1cccc2cnccc12)N1CCCNCC1 result_unit=% measured=3.31

Now look at this one.
For Cc1ccc(C(=O)Nc2ccc(CN3CCN(C)CC3)c(C(F)(F)F)c2)cc1C#Cc1cnc2cccnn12 , what is its reported %-inhibition of MGC42105?
-5.68

----------
subject.of.test: panel of more than 300 wild-type and mutant kinases (313 kinase panel) (Homo sapiens)
measurement.notes: Kinase profiling in a biochemical assay panel (mobility shift assays and ELISA), %-inhibition at 1 μM; selectivity entropy
condition.summary: kinase COT; compound at 1 μM
Short version: %-inhibition of COT at least 10% is 1, less is -1.

compound="CC(=O)Nc1cccc(-n2c(=O)n(C3CC3)c(=O)c3c(Nc4ccc(I)cc4F)n(C)c(=O)c(C)c32)c1 [trametinib]" class_name=1
compound="COc1cc2nccc(Oc3ccc(NC(=O)C4(C(=O)Nc5ccc(F)cc5)CC4)cc3)c2cc1OC [cabozantinib]" class_name=1
compound="CO[C@H]1C[C@@H]2CC[C@@H](C)[C@@](O)(O2)C(=O)C(=O)N2CCCC[C@H]2C(=O)O[C@H]([C@H](C)C[C@@H]2CC[C@@H](OCCO)[C@H](OC)C2)CC(=O)[C@H](C)/C=C(\\C)[C@@H](O)[C@@H](OC)C(=O)[C@H](C)C[C@H](C)/C=C/C=C/C=C/1C [everolimus]" class_name=-1
compound="N#CC[C@H](C1CCCC1)n1cc(-c2ncnc3[nH]ccc23)cn1 [ruxolitinib]" class_name=-1
compound="C[C@@H](Oc1cc(-c2cnn(C3CCNCC3)c2)cnc1N)c1c(Cl)ccc(F)c1Cl [crizotinib]" class_name=1

Turning to the following compound.
Confirm if %-inhibition of COT reported for the compound O=S(=O)(c1cccc2cnccc12)N1CCCNCC1 [fasudil] is 10% or above.
1

----------
subject.of.test: panel of more than 300 wild-type and mutant kinases (313 kinase panel) (Homo sapiens, UniProt P00540)
measurement.notes: Kinase profiling in a biochemical assay panel (mobility shift assays and ELISA), %-inhibition at 1 μM; selectivity entropy
condition.summary: kinase MOS; 1 μM
# reported %-inhibition of MOS; entries follow
Hi! Could you send only the number? It should be in %, unit omitted.

molecule=CN(C)C/C=C/C(=O)Nc1cc2c(Nc3ccc(F)c(Cl)c3)ncnc2cc1O[C@H]1CCOC1 measured=-2
molecule=COc1cc(Nc2c(C#N)cnc3cc(OCCCN4CCN(C)CC4)c(OC)cc23)c(Cl)cc1Cl measured=44
molecule=N#CC[C@H](C1CCCC1)n1cc(-c2ncnc3[nH]ccc23)cn1 measured=8

May I ask what %-inhibition of MOS has been recorded for CC(=O)Nc1cccc(-n2c(=O)n(C3CC3)c(=O)c3c(Nc4ccc(I)cc4F)n(C)c(=O)c(C)c32)c1 ?
42

Any idea what its %-inhibition of MOS is? The molecule is CO[C@H]1C[C@@H]2CC[C@@H](C)[C@@](O)(O2)C(=O)C(=O)N2CCCC[C@H]2C(=O)O[C@H]([C@H](C)C[C@@H]2CC[C@@H](OC(=O)C(C)(CO)CO)[C@H](OC)C2)CC(=O)[C@H](C)/C=C(\C)[C@@H](O)[C@@H](OC)C(=O)[C@H](C)C[C@H](C)/C=C/C=C/C=C/1C
-1.43

Which value of %-inhibition of MOS has been reported for Cc1ccc(Nc2nccc(N(C)c3ccc4c(C)n(C)nc4c3)n2)cc1S(N)(=O)=O in the records?
-12

Tell me the measured %-inhibition of MOS of CCCS(=O)(=O)Nc1ccc(F)c(C(=O)c2c[nH]c3ncc(-c4ccc(Cl)cc4)cc23)c1F , please.
10

Can you share its %-inhibition of MOS? I mean this molecule: CNC(=O)c1cc(Oc2ccc(NC(=O)Nc3ccc(Cl)c(C(F)(F)F)c3)c(F)c2)ccn1
0.399

May I ask what %-inhibition of MOS has been recorded for CS(=O)(=O)CCNCc1ccc(-c2ccc3ncnc(Nc4ccc(OCc5cccc(F)c5)c(Cl)c4)c3c2)o1 ?
4.31
